Biological target: Fes (UniProt P07332)
Sequence (P07332 whole entry, looked up): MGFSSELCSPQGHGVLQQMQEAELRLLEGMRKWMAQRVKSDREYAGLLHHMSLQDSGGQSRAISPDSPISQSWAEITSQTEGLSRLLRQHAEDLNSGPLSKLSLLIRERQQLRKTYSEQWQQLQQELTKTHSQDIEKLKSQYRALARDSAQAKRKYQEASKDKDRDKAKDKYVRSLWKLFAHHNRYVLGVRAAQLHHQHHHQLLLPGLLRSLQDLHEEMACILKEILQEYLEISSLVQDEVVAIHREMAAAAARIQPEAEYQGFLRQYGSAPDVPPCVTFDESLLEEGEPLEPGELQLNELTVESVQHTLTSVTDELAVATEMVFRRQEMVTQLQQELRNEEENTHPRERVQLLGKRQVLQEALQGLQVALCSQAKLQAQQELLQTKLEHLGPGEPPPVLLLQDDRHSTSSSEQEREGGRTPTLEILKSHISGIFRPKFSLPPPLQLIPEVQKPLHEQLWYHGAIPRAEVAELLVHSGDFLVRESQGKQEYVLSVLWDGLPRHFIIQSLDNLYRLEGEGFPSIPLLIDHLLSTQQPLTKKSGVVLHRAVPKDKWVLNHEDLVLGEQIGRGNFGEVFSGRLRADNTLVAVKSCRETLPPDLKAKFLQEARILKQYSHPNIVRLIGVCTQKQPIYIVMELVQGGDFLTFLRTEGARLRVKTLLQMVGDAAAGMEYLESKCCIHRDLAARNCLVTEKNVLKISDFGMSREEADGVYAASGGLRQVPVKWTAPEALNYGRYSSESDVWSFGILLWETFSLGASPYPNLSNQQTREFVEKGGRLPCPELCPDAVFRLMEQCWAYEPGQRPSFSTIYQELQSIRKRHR
Experiment: phosphorylation enrichment, bacterial display (enrichment ratio); higher = better substrate or ligand; peptides without Tyr show the background
Each record here notes measured phosphorylation enrichment.
observable: phosphorylation enrichment

>>> df
                    sequencecontent     measurementtarget                  observable  observedmeasurement
0    LVSCTYQLATG [FGFR2_Y608_R612T]  Fes (UniProt P07332)  phosphorylation enrichment                  1.3
1       SILAVYSKDNF [PANK2_Y400_YF]  Fes (UniProt P07332)  phosphorylation enrichment                 1.69
2            ILGRYYETGSI [PAX2_Y73]  Fes (UniProt P07332)  phosphorylation enrichment                 0.68
3  TSNNPYFRDQA [RPGRIP1_Y846_A841T]  Fes (UniProt P07332)  phosphorylation enrichment                0.796

###

Biological target: SHP2-C SH2;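 note: peptide library displayed on the E. coli surface as eCPX fusions, selected cells deep-sequenced, score is each peptide's frequency after selection divided by its frequency in the input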
Experiment: SH2 binding enrichment of the phosphorylated peptide, bacterial display (enrichment ratio); higher = better substrate or ligand; peptides without Tyr show the background
observable: SH2 binding enrichment

>>> print(df.to_string())
                        sequencecontent              observable  observedmeasurement
0            LEAVSYSSRFA [RNLS_Y190_YF]  SH2 binding enrichment                0.793
1            IDSTPYRQWFE [RPS8_Y109_YF]  SH2 binding enrichment                0.744
2              RRQDLYSARDL [SART1_Y249]  SH2 binding enrichment                0.767
3     QGCGIYKDFFR [PLA2G2D_Y82_S80G_YF]  SH2 binding enrichment                 1.38
4          AKKVFYMIETR [SHH_Y253_V254M]  SH2 binding enrichment                 1.01
5             TGTQLYGRFGS [ITGA2B_Y384]  SH2 binding enrichment                0.569
6  GAVDTYCRHNF [HLA-DRB1_Y107_A102G_YF]  SH2 binding enrichment                0.809

###

Target: MERTK (UniProt Q12866)
Sequence (Q12866 whole entry, looked up): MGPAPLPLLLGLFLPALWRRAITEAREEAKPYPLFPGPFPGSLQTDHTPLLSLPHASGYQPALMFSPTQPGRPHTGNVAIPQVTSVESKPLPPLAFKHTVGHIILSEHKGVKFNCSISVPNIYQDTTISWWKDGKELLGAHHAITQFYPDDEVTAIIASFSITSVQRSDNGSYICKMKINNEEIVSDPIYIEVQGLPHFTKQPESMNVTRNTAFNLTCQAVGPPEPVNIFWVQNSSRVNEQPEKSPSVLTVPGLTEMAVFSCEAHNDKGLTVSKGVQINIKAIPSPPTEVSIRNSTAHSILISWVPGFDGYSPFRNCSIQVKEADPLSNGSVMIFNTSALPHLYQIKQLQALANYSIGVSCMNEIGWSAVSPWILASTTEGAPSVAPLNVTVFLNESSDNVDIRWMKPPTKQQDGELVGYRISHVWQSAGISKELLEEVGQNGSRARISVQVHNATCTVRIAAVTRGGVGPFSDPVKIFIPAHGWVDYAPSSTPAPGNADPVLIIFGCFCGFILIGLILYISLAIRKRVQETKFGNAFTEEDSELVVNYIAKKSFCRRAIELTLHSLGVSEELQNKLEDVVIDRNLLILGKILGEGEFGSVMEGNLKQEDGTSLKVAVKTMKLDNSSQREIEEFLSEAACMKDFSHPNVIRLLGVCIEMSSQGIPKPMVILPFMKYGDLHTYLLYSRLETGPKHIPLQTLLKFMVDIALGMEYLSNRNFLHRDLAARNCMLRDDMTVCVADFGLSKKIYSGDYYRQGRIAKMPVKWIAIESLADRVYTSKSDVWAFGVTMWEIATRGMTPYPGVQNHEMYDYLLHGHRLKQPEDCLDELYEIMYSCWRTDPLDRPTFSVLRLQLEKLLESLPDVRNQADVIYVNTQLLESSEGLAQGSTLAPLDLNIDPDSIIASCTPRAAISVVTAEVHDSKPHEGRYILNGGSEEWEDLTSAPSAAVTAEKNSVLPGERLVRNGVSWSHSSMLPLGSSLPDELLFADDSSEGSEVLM
Experiment: phosphorylation enrichment, bacterial display (enrichment ratio); higher = better substrate or ligand; peptides without Tyr show the background
Record label 1 whenever phosphorylation enrichment is at 0.6 or higher; record label 0 when lower.

>>> df
                     sequencecontent       measurementtarget    class
 0     TTPFNYSFIFK [RAB14_Y8_A4T_YF]  MERTK (UniProt Q12866)  label 1
 1    LREIRYQGGNR [VWF_Y1570_V1565L]  MERTK (UniProt Q12866)  label 0
 2          NFATLYLKIYH [PDE6B_Y219]  MERTK (UniProt Q12866)  label 0
 3     SSMIDYNLLEK [MYOC_Y479_P481L]  MERTK (UniProt Q12866)  label 0
 4      PSDSGYSFETI [MAP1B_Y1921_YF]  MERTK (UniProt Q12866)  label 1
 5            ADLAKYICENQ [ALB_Y287]  MERTK (UniProt Q12866)  label 0
 6     TRDVNYGWVIR [MT-CYB_Y75_I78V]  MERTK (UniProt Q12866)  label 1
 7           PLDGEYFTLQI [TP53_Y327]  MERTK (UniProt Q12866)  label 1
 8  PDSVDYPKKGF [CTSK_Y121_R122P_YF]  MERTK (UniProt Q12866)  label 1
 9    LHRHAYPEQQQ [DPPA2_Y127_R131Q]  MERTK (UniProt Q12866)  label 0
10  DISEPYEVFRI [IRF8_Y107_K108E_YF]  MERTK (UniProt Q12866)  label 0

###

# Lookup of reported phosphorylation enrichment keyed by entry
Target: Hck (UniProt P08631)
Sequence (P08631 whole entry, looked up): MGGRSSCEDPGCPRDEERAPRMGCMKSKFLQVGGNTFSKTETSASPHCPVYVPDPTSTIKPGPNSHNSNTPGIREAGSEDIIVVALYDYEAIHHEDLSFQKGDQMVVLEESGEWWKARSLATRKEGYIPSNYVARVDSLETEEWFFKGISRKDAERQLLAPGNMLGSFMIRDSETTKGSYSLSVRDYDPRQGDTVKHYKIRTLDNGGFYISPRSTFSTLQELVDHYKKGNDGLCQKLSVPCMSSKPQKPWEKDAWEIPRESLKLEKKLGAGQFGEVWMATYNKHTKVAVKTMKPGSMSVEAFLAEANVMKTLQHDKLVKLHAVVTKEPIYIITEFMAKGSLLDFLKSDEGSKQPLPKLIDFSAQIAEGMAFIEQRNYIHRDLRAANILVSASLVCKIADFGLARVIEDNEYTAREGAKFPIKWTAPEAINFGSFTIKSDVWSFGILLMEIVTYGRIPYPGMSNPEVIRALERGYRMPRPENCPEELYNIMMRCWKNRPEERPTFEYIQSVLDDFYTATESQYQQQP
Experiment: phosphorylation enrichment, bacterial display (enrichment ratio); higher = better substrate or ligand; peptides without Tyr show the background
observable: phosphorylation enrichment

In [3]: df
Out[3]:
                      sequencecontent  observedmeasurement
 0      GGSTYYIDTNA [ACTL6A_Y69_P66S]                0.602
 1         TQNGVYSAANF [DDX5_Y535_YF]                  8.3
 2            AEEKEYHAEGG [EGFR_Y869]                0.451
 3            MSIWPYLQKID [MFSD8_Y63]                0.468
 4          NGRTGYVLQPE [PLCG2_Y1036]                0.474
 5         LKALKYKSMKI [ITGA11_Y1098]                0.424
 6       DENWFYTQAAS [RPS19_Y54_R56Q]                0.392
 7         RLLVVYPWTER [HBB_Y36_Q40E]                0.618
 8  FKIFRYTLNDN [FN1_Y1975_L1974R_YF]                0.464
 9    PLQHVYKIGGI [EEF1A2_Y254_D252H]                0.865
10             SRWKLYPRMLR [HAO1_Y50]                0.415
11   KIDAKYKKKIK [WDR19_Y1230_E1235K]                0.398
12       TKYVAYIESQG [KDM4B_Y34_N29T]                0.485
13        YGSSSSGGAGG [RPA2_Y14_Y14S]                0.359
14           YNDSTYNQQLI [ZPLD1_Y198]                0.506
15         AFLQTYSHEVS [PCDHGA5_Y753]                0.551
16            DGTESYLTVSS [PLK1_Y462]                0.443
17    NDTAGYFVIGG [SEL1L3_Y399_I401V]                 0.75
18   KKFFSYAWPFF [BRDT_Y291_H288Y_YF]                0.497
19           AQINLYQDVML [ZNF806_Y33]                 2.05
20   VIKDKYPQARF [APTX_Y209_K211Q_YF]                0.308
21          FNNPAYYVLEG [INPPL1_Y986]                 1.11
22           HHIDYYKKTTN [FGFR1_Y654]                0.481

###

Molecular target: FGFR3 (UniProt P22607)
Sequence (P22607 whole entry, looked up): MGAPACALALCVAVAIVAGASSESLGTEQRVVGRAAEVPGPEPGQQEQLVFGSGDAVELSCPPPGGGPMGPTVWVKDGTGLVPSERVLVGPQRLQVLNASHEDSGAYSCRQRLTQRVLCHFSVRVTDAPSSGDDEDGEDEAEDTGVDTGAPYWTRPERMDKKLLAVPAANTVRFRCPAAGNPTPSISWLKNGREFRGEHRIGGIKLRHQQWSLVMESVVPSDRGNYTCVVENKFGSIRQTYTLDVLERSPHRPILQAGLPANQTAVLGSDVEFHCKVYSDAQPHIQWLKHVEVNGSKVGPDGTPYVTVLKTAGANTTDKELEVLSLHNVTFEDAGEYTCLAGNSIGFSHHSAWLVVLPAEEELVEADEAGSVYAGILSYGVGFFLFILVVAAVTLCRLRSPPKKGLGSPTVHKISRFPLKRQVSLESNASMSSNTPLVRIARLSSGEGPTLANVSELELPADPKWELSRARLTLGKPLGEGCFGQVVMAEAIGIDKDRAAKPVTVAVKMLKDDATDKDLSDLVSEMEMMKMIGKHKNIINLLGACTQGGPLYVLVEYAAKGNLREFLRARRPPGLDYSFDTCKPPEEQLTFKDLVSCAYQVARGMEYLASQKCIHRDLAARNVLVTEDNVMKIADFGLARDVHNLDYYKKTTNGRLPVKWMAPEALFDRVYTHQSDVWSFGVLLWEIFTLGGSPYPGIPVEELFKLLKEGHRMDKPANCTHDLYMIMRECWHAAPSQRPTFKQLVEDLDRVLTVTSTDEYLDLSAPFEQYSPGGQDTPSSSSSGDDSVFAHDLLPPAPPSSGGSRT
Assay: phosphorylation enrichment, bacterial display (enrichment ratio); higher = better substrate or ligand; peptides without Tyr show the background
observable: phosphorylation enrichment

In [3]: df
Out[3]:
                      sequencecontent                  observable  observedmeasurement
 0       WKESWYSMRKM [FGB_Y475_G472E]  phosphorylation enrichment                0.738
 1   LYDPDFMKVIL [CYP4A22_Y104_Y104F]  phosphorylation enrichment                0.688
 2     DRLASDLDKVR [KRT10_Y160_Y160D]  phosphorylation enrichment                0.469
 3         RLLVLYPWTQR [HBB_Y36_V35L]  phosphorylation enrichment                0.987
 4       ILTLKYLIEHG [ACTG1_Y69_P70L]  phosphorylation enrichment                0.839
 5          VDTRAYFTSAT [MT-CO1_Y304]  phosphorylation enrichment                0.459
 6      WQQQSYLDSGS [CTNNB1_Y30_I35S]  phosphorylation enrichment                0.536
 7     SMEGLYSSAQD [CLIC5_Y111_T114A]  phosphorylation enrichment                0.908
 8            KNKLNYTLPQD [NRAP_Y523]  phosphorylation enrichment                0.451
 9         EPFKVYRIVPE [IRF8_Y110_YF]  phosphorylation enrichment                0.485
10      DTCPPYVLSQV [GJB4_Y237_G242V]  phosphorylation enrichment                0.776
11        PMDTYYDSTRG [DYNC2H1_Y2231]  phosphorylation enrichment                  2.3
12  EERNPYFSSAR [MCCC2_Y520_G517R_YF]  phosphorylation enrichment                0.404
13           SHGQDYLVGNK [GSTA1_Y147]  phosphorylation enrichment                0.419
